Listed next: entries and their corresponding pIC50.
# experimental system: α1S-Na,K-ATPase from pig kidneys (Sus scrofa, UniProt P05024)
# Construct: In contrast to α1S-NKA from pig kidneys; from tissue; host or cells: pig kidney
# assay protocol: Hydrolytic Na,K-ATPase activity (enzyme coupled assay), CTS in incubation medium
# Format: biochemical
# conditions: as restated in discussion; read-out: IC50 evaluated in our experiments
The quantity pIC50 is defined as the negative base-10 logarithm of the molar concentration.

C[C@@H]1O[C@@H](O[C@H]2C[C@@H](O)[C@]3(CO)[C@H]4[C@H](O)C[C@]5(C)[C@@H](C6=CC(=O)OC6)CC[C@]5(O)[C@@H]4CC[C@]3(O)C2)[C@H](O)[C@H](O)[C@H]1O 6.10

Here is the next item to consider.
## Input What measured pIC50 is associated with C[C@]12CC[C@H](O)C[C@@]1(O)CC[C@@H]1[C@@H]2CC[C@]2(C)[C@@H](c3ccc(=O)oc3)C[C@H]3O[C@]132 on α1S-Na,K-ATPase from pig kidneys (Sus scrofa, UniProt P05024)?
## Output 5.92

From: paper PMC8708600
